Reported abundance fitness values are given for each entry in this list.
B1: POU domain, class 3, transcription factor 3, residues 408 to 463; numbered along this chain, P20264 (parent)
chain: KKRTSIEVSVKGALESHFLKCPKPSAQEITNLADSLQLEKEVVRVWFCNRRQKEKR

# Variants of: B1
# assay.protocol: abundance fitness (aPCA) (normalised: wild type 0, dead -1); higher = more abundant; growth selection in yeast, the domain comes from the species named
# test.parameters: Homo sapiens
Respond using a number only.

KKRTSIEVSVKGALESHFLKCPKPSAQEITNLADSLQLEKEVVRVWFCRRRQKEKR = -0.278
KKRTSIEVSVKGALESHFLKCPKPSAQEITNLADSLQLEKEVVRVWFCNRRRKEKR = -0.138
KKRTSIEVSVKPALESHFLKCPKPSAQEITNLADSLQLEKEVVRVWFCNRRQKEKR = -0.056

// abundance fitness lookup, variant = KKRTSIEVSVKGALESHFLKCPKPSAVEITNLADSLQLEKEVVRVWFCNRRQKEKR , result: -0.11

// abundance fitness lookup, variant = KKRTSIEVSVKGALESHQLKCPKPSAQEITNLADSLQLEKEVVRVWFCNRRQKEKR , result: -0.703

// abundance fitness lookup, variant = KKRTSIEVSVKGALESHFLKCPKPSAQEITNLADSLQLEKEVVRVWFMNRRQKEKR , result: 0.026

// abundance fitness lookup, variant = KKRTSIEVSVIGALESHFLKCPKPSAQEITNLADSLQLEKEVVRVWFCNRRQKEKR , result: -0.006

// abundance fitness lookup, variant = KKRTSIEVSVKGALESHFLKCPKPSAQEITNLADRLQLEKEVVRVWFCNRRQKEKR , result: 0.117

// abundance fitness lookup, variant = KKRCSIEVSVKGALESHFLKCPKPSAQEITNLADSLQLEKEVVRVWFCNRRQKEKR , result: -0.205

// abundance fitness lookup, variant = KKRTSIEVSVKGALESVFLKCPKPSAQEITNLADSLQLEKEVVRVWFCNRRQKEKR , result: -0.069

// abundance fitness lookup, variant = KKRTSIEVSNKGALESHFLKCPKPSAQEITNLADSLQLEKEVVRVWFCNRRQKEKR , result: -0.148

// abundance fitness lookup, variant = KKRTSIEVSVKGALESHFLKCPKPSAQEITNLADSLQLEKEVVRVWFCNRMQKEKR , result: 0.031

// abundance fitness lookup, variant = KKRTSIEVSVKGALESHFLKCPKCSAQEITNLADSLQLEKEVVRVWFCNRRQKEKR , result: -0.83
